IC50 listing for selected molecules.
TESTED ON: PAR4 (Homo sapiens (Human), UniProt Q96RI0)
Sequence (Q96RI0 18-385): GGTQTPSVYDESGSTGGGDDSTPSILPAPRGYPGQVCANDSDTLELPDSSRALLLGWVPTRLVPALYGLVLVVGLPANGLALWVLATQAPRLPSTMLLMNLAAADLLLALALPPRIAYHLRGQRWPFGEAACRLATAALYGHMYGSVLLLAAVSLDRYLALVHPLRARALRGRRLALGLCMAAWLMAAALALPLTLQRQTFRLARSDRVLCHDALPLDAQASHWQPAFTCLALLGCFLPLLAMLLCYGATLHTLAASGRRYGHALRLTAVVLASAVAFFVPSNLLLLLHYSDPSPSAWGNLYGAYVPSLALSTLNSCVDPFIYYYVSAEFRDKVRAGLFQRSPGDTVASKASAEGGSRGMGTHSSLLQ
EXPERIMENT: FLIPR assay in PAR4-expressing HEK293 cells (PAR4 antagonist activity, calcium mobilization)
Assay type: cell-based
RECORDED CONDITIONS: FLIPR assay as described in Example A
Report only the number, with the unit nM understood.

Enquiry: Report IC50, nothing else, for this molecule: COc1cc(OCc2cc(Cl)cc(OCc3ccccc3)c2)c2cc(-c3cn4nc(OC)sc4n3)oc2c1
Return: 6.2

Enquiry: Report IC50, nothing else, for this molecule: Fc1cccc2cc(-c3cn4nc(Br)sc4n3)oc12
Return: 323

Enquiry: Report IC50, nothing else, for this molecule: COc1cc(OCc2cc(OCc3ccccc3)cc(C(F)(F)F)c2)c2cc(-c3cn4nc(OC)sc4n3)oc2c1
Return: 7.47

Enquiry: Report IC50, nothing else, for this molecule: CSc1nn2cc(-c3nc4cc(C(C)(C)C)ccc4o3)nc2s1
Return: 87.2

----------
TESTED ON: UniProt Q96RI0
EXPERIMENT: Gamma thrombin induced platelet aggregation assay in PRP (PRP assay)
Format: cell-based
IC50 listing for selected compounds.

Some solved cases for reference:
given_smiles=COc1ccc2oc(-c3cn4nc(SC)sc4n3)cc2c1 tested_on="UniProt Q96RI0" value_measured="> 30 µM"
given_smiles=COc1nn2cc(-c3cc4ccc(OC)c(OC)c4o3)nc2s1 tested_on="UniProt Q96RI0" value_measured="> 30 µM"

Enquiry: Report IC50, nothing else, for this compound: CCOc1nn2cc(-c3cc4ccccc4o3)nc2s1
Return: > 30 µM

----------
TESTED ON: UniProt Q96RI0
EXPERIMENT: FLIPR assay in PAR4-expressing HEK293 cells (PAR4 antagonist activity, calcium mobilization)
Type: cell-based
RECORDED CONDITIONS: FLIPR assay as described in Example A
ENDPOINT LABEL: pIC50
As a rule, pIC50 stands for the negative log10 of the concentration, concentration in M.

Some solved cases for reference:
compound="C#Cc1cc(OCc2cccc(OCc3ccccc3)c2)c2cc(-c3cn4nc(OC)sc4n3)oc2c1 [Example 418]" value_measured=8.03
compound="COc1nn2cc(-c3nc4cc(F)ccc4o3)nc2s1 [Example 135]" value_measured=7.30

Okay, next one:
Enquiry: Report pIC50, nothing else, for this compound: COCOc1ccc2nc(-c3cn4nc(SC)sc4n3)oc2c1 [Example 162]
Return: 6.77

----------
log10 of IC50 listing for selected molecules.
TESTED ON: PAR4 (Homo sapiens (Human), UniProt Q96RI0)
EXPERIMENT: FLIPR assay in PAR4-expressing HEK293 cells (PAR4 antagonist activity, calcium mobilization)
Assay type: cell-based
RECORDED CONDITIONS: FLIPR assay as described in Example A
Values reflect log10 of reported IC50 (nM).

Some solved cases for reference:
given_smiles=CSc1nn2cc(-c3cc4c(Br)cccc4o3)nc2s1 value_measured=0.52
given_smiles=COc1ccc(Br)c2cc(-c3cn4nc(SC)sc4n3)oc12 value_measured=1.70
given_smiles=COc1cc(OCc2cccc(OCc3ccc(F)cc3F)c2)c2cc(-c3cn4nc(OC)sc4n3)oc2c1 value_measured=0.36

Enquiry: Report log10 of IC50, nothing else, for this molecule: COc1nn2cc(-c3nc4cc(C)c(C)cc4o3)nc2s1
Return: 1.59

Enquiry: Report log10 of IC50, nothing else, for this molecule: CC(F)(F)c1nn2cc(-c3nc4c([N+](=O)[O-])cccc4o3)nc2s1
Return: 3.05
